- assay notes: Human HepG2 cell viability assay in 384 well format
- Type: toxicity, cell-based
- Parameters: dose 125 nL, time 70.5 hour; concentration not given beside the values
- experimental parameters: HepG2 cells, read-out: Inhibition
assay endpoint: cytotoxicity at 70.5 h (%)
Just the number in %, nothing appended.

Look up cytotoxicity at 70.5 h for this compound: Cn1cc(CCC(=O)NC(c2ccc(F)cc2)C(F)(F)F)cn1 (centres undefined)
-8.97

Look up cytotoxicity at 70.5 h for this compound: CC1CCc2nn(CCNC(=O)c3ccco3)c(=O)cc2C1 (centres undefined)
-5.13

Look up cytotoxicity at 70.5 h for this compound: `Cn1ccc(NC(=O)CN2C[C@H]3CC[C@@H]2CN(S(C)(=O)=O)C3)n1`
0.433

Look up cytotoxicity at 70.5 h for this compound: `CN(C)c1nc(NCCc2cnccn2)ncc1F`
-9.9

Look up cytotoxicity at 70.5 h for this compound: CC(NC(=O)NCC1(c2ccc(F)cc2)CCC1)c1nncn1C (centres undefined)
-16.8

Look up cytotoxicity at 70.5 h for this compound: CC/C=C(/C)C(=O)N1CCN(C2=NCC(C)S2)CC1 (centres undefined)
32.7

Look up cytotoxicity at 70.5 h for this compound: `CCN1CCN(C(=O)COCc2cccc(OC)c2)CC1`
-6.27

Look up cytotoxicity at 70.5 h for this compound: CCc1nccn1C1CCCN(C(=O)c2cc3nc(C)ccc3o2)C1 (centres undefined)
-2.05

Look up cytotoxicity at 70.5 h for this compound: `CCN(Cc1ncc(C(C)(C)C)o1)Cc1ccccc1C`
-1.58

Look up cytotoxicity at 70.5 h for this compound: `c1cncc(O[C@H]2CC[C@H]3[C@H]2OCCN3C2CCC2)c1`
-3.23

Look up cytotoxicity at 70.5 h for this compound: `O=S(=O)(NCc1ccccc1)Nc1cccc(Cn2cncn2)c1`
-7.79

Look up cytotoxicity at 70.5 h for this compound: `O=C1CC[C@H]2[C@H](CCN2C(=O)c2ccc[nH]2)N1CCN1CCOCC1`
19.1

Look up cytotoxicity at 70.5 h for this compound: Cc1cnc(N2CCC3(CC2)CC(NC(=O)C(C)C)CO3)nc1 (centres undefined)
11.3

Look up cytotoxicity at 70.5 h for this compound: `CN(C)C(=O)[C@]12CCCN(CC3CC3)C[C@H]1CN(c1ccccn1)C2`
-8.29

Look up cytotoxicity at 70.5 h for this compound: COc1ccc(F)c(CN2CCCC(O)(CNCc3ccon3)C2=O)c1 (centres undefined)
8.61

Look up cytotoxicity at 70.5 h for this compound: `CN1N=C(C(=O)NCCc2ccc(OC3CCCC3)cc2)CCC1=O`
1.04

Look up cytotoxicity at 70.5 h for this compound: `CN1CCc2ncc(CNc3cc(N(C)C)ncn3)n2CC1`
-11.9

Look up cytotoxicity at 70.5 h for this compound: `CCOCCC(=O)Nc1cccc(Cl)c1COC`
-2.76

Look up cytotoxicity at 70.5 h for this compound: `CC(C)NC(=O)c1sccc1N(C)S(=O)(=O)c1ccc(Cl)cc1`
-8.11

Look up cytotoxicity at 70.5 h for this compound: `N#Cc1ncn(CCC(=O)Nc2ccccc2F)n1`
-0.493

Look up cytotoxicity at 70.5 h for this compound: CCc1ccc(-c2cn3c(C(=O)NCC(C)C(=O)NC)csc3n2)cc1 (centres undefined)
-1.36

Look up cytotoxicity at 70.5 h for this compound: `O=C(c1cc(F)ccc1F)C1CCN(C(=O)c2cccnc2O)CC1`
-16.4

Look up cytotoxicity at 70.5 h for this compound: `CCN(C)Cc1cccc(CNC(=O)CSCc2ccncc2)c1`
-6.72

Look up cytotoxicity at 70.5 h for this compound: `CCCNC(=O)COc1ccc(-c2ccccc2)nc1`
-5.84
